In this section we review reported T/C values for a set of compounds.
# Tested on: P388 leukemia ip, CD2F1 mice, survival T/C
# PROTOCOL_DESCRIPTION: NCI In Vivo Anticancer Drug Screen. Data for tumor model P388 Leukemia (intraperitoneal) in CD2F1 (CDF1) mice
# CONDITION_INFO: endpoint: median survival time; dose: 100.0 mg/kg/injection; schedule: Q01DX005 (ip); vehicle: saline with Tween-80; higher = longer survival
Toxic doses and inconclusive results are not listed.

{"COMPOUND": "O=C(CSc1nccc(=O)[nH]1)c1ccccc1", "SYSTEM_NAME": "P388 leukemia ip, CD2F1 mice, survival T/C", "T/C": "103 % of control"}
{"COMPOUND": "Oc1[nH]c2ccccc2c1N=NC(=S)NC1C2CC3CC(C2)CC1C3 (stereo unspecified)", "SYSTEM_NAME": "P388 leukemia ip, CD2F1 mice, survival T/C", "T/C": "100 % of control"}
{"COMPOUND": "C=CCNC(=S)N/N=C(\\CCC)c1ccccn1", "SYSTEM_NAME": "P388 leukemia ip, CD2F1 mice, survival T/C", "T/C": "121 % of control"}
{"COMPOUND": "CCOC(=O)/C(Nc1ccc(C(=O)OCC)cc1)=C1\\COc2nc(N)[nH]c(=O)c2N1", "SYSTEM_NAME": "P388 leukemia ip, CD2F1 mice, survival T/C", "T/C": "91 % of control"}
{"COMPOUND": "CCOc1cc2c(cc1C(C)(C)c1ccccc1)OCO2", "SYSTEM_NAME": "P388 leukemia ip, CD2F1 mice, survival T/C", "T/C": "92 % of control"}
{"COMPOUND": "CC(=O)C1=C(C)C2CC3(C)CC(C2(C)C1)C3(C)C (stereo unspecified)", "SYSTEM_NAME": "P388 leukemia ip, CD2F1 mice, survival T/C", "T/C": "102 % of control"}
{"COMPOUND": "CCOC(=O)c1cc(-c2ccccc2)c(OC)c(=O)nc1-c1ccccc1", "SYSTEM_NAME": "P388 leukemia ip, CD2F1 mice, survival T/C", "T/C": "100 % of control"}
{"COMPOUND": "C[N+](C)(C)CCNP(=O)(Oc1ccccc1)c1ccccc1 (stereo unspecified)", "SYSTEM_NAME": "P388 leukemia ip, CD2F1 mice, survival T/C", "T/C": "94 % of control"}
{"COMPOUND": "CC(=O)c1nn(-c2ccccc2)c(=Nc2ccccc2)cc1C", "SYSTEM_NAME": "P388 leukemia ip, CD2F1 mice, survival T/C", "T/C": "101 % of control"}
{"COMPOUND": "CC(C)CC(NC(=O)C(Cc1cnc[nH]1)N(C(=O)OCc1ccccc1)C(=O)OCc1ccccc1)C(=O)NN (stereo unspecified)", "SYSTEM_NAME": "P388 leukemia ip, CD2F1 mice, survival T/C", "T/C": "106 % of control"}
{"COMPOUND": "COc1ccc(N=Nc2c(-c3ccccc3)nn(C(=S)S)c2-c2ccccc2)cc1", "SYSTEM_NAME": "P388 leukemia ip, CD2F1 mice, survival T/C", "T/C": "96 % of control"}

----------
# Test system: P388 leukemia ip, CD2F1 mice, survival T/C
# PROTOCOL_DESCRIPTION: NCI In Vivo Anticancer Drug Screen. Data for tumor model P388 Leukemia (intraperitoneal) in CD2F1 (CDF1) mice
# CONDITION_INFO: endpoint: median survival time; dose: 50.0 mg/kg/injection; schedule: Q01DX005 (ip); vehicle: Klucel (hydroxypropylcellulose) (HPC)
Toxic doses and inconclusive results are not listed. The calls were made as follows: active = survival T/C of 150% or more; inactive = T/C below 125% in these data. Peptide text beside a SMILES is read from it. * marks the point of attachment. For = O=C*
Labels: y = active, n = inactive

{"COMPOUND": "O=C(OCC1OC(n2cc(C(F)(F)F)c(=O)[nH]c2=O)CC1O)c1ccc([N+](=O)[O-])cc1 (centres undefined)", "ASSIGNED_LABEL": "y"}
{"COMPOUND": "CCN(CC)CC(O)c1cc(-c2ccccc2)nc2ccc(OC)cc12 (centres undefined)", "ASSIGNED_LABEL": "n"}
{"COMPOUND": "CSCCC(NC=O)C(=O)NC(C(=O)O)C(C)C (stereo not drawn) (For-Met-Val-OH; configuration not given here)", "ASSIGNED_LABEL": "n"}
{"COMPOUND": "O=C(/C=C/c1ccccc1)OCC1=C[C@@H](O)[C@@H]2C=CO[C@@H](OC3OC(CO)C(O)C(O)C3O)[C@H]12 (some centres undefined)", "ASSIGNED_LABEL": "n"}
